B1: HDV Ribozyme (parent)
chain: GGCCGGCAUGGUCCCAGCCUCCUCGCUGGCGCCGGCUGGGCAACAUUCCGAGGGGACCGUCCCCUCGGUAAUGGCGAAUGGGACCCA

# Variants of: B1
# ASSAY NAME: self-cleavage, relative activity (ratio to wild type); higher = more cleavage; co-transcriptional
Response field class: string, computed from recorded self-cleavage by ranges low range = under 0.1, mid range = from 0.1 up to 0.6, high range = 0.6 and over

C22G U79C :: mid range

Query: Hey, which category is G1A C58U in, do you know?
Result: mid range

Query: Hey, which category is U20A C36G in, do you know?
Result: mid range

Query: Hey, which category is G2U A42C in, do you know?
Result: low range

Query: Hey, which category is G50A C84A in, do you know?
Result: high range
